- Target or system: T1, human MSLN-R3-3 polypeptide (human)
- T1 construct: also called human MSLN-R3-3 protein; hMSLN-R3-3
- Method notes: ELISA on coated antigen, antibody 10 nM
Measurement type: OD450
Could you write the number and then its unit?

Task: Endpoint output: OD450 of S009-F2.39.3 (antibody, human IgG1, kappa, V domains shown, Human-murine chimeric antibody: murine VH/VL on human IgG1 heavy and kappa light constant regions) VH: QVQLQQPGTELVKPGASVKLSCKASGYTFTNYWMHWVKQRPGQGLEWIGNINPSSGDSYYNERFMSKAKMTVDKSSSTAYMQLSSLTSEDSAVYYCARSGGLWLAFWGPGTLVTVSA VL: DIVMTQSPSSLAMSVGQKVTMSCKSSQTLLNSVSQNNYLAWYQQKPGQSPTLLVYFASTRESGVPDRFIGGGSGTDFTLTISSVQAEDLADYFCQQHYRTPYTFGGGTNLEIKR . Value?
Output: 0.05 OD450

Task: Do the same for S009-F2.47.1 (antibody, human IgG1, kappa, V domains shown, Human-murine chimeric antibody: murine VH/VL on human IgG1 heavy and kappa light constant regions) VH: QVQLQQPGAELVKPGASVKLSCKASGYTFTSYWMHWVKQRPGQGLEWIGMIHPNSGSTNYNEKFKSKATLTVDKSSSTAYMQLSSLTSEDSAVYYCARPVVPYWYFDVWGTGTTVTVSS VL: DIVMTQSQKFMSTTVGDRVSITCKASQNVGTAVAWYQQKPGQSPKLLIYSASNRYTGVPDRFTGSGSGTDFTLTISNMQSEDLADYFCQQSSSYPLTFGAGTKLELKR please
Output: 0.06 OD450
